// reported melting point per item
PARAMETER MEASURED: melting point

* Nc1cc(N2C(=O)COc3ccccc32)ccn1 | 189 to 190 °C
* O=C1c2ccccc2-c2c1c1ccccc1c(=O)n2CCCCCCO | 139 to 141 °C
* CC(=O)NC1CSc2ccccc2NC1=O (stereo unspecified) | 283 to 286 °C
* c1ccc(-n2c(-c3ccc(OCCCN4CCCCC4)cc3)nc3ccccc32)cc1 | 86 °C
* CC(C)(C)OC(=O)[C@@H](CCCOS(=O)(=O)c1ccc2ccccc2c1)C[C@H](NC(c1ccccc1)(c1ccccc1)c1ccccc1)C(=O)OC(C)(C)C | 119 °C
* CCC(=NO)C(C)(C)NCC(C)(C)CN | 118 to 120 °C
* CC(C)c1csc(/C=C/c2cccc(OCCC(C)(C)C(=O)O)c2)n1 | 112 to 113 °C
* Cc1cc(-c2nc3cccnn3c2-c2ccnc(NC(=O)NCC(C)O)c2)ccc1F (stereo unspecified) | 139 to 140 °C
* Cc1ccc(-c2nc(C(=O)O)c(C)s2)s1 | 160 to 161 °C
* COC(=O)c1nn(-c2ccc(Cl)cc2Cl)c(-c2ccc(Cl)cc2)c1C | 133 °C
* CC(C)Cn1c(CN)c(-c2ccccc2)c2cc(OCC(N)=O)ccc2c1=O | 161 to 163 °C
* ClCCOc1ccc(CBr)cc1 | 64 to 66 °C
* O=C(O)c1ccc2sc3ccccc3c2c1 | 281 to 283 °C
* Clc1nc2ccc(Br)cc2cc1Cc1ccccc1 | 102 to 104 °C
* O=C(O)c1cncc(OCc2ccccc2)n1 | 160 to 162 °C
* Cc1ccc(S(=O)(=O)OCC2Cc3cccc(-c4ccccc4F)c3O2)cc1 (stereo unspecified) | 99 to 101 °C
* CCCOCCOc1ccc(-c2ccc3c(c2)C=C(C(=O)O)CCN3Cc2ccccc2)cc1 | 139 to 142 °C
* COc1nsc(NC(=O)CBr)n1 | 198 to 199 °C
* Cc1ccc(-c2cc(C)c(C(=O)N=C(N)N)cc2S(C)(=O)=O)cc1 | 222 to 224 °C
* COc1ccc2c(c1)CN(C(=O)CN1CCOCC1)N=C2Cc1c(Cl)cncc1Cl | 180 to 182 °C
* O=C(O)C1CCc2cc(O)ccc2O1 (racemic) | 175 to 177 °C
* O=C(O)CCc1cccc(OCc2cn(-c3ccc(C(F)(F)F)cn3)nc2C2CCCCC2)c1 | 94 to 95 °C
* COc1ccc(Cl)cc1C(=O)NCCc1ccc(-c2ccccc2)c(S(N)(=O)=O)c1 | 134 to 136 °C
* COc1cc2ncnc(N3CCNCC3)c2cc1OC | 178 to 179 °C
* CC(=O)Oc1ccc(-c2c(C)c3ccc(F)cc3oc2=O)c(OC(C)=O)c1 | 148 to 149 °C
* O=S(=O)(O)c1ccccc1Nc1ccnc2cc(Cl)ccc12 | > 300 °C
* CC(C)(C)c1ccc(C(=O)NNS(=O)(=O)c2ccccc2)cc1 | 197 to 199 °C
* COc1cc(COc2ccc3nc(NC(=O)OCC(O)CO)cn3n2)cc(OC)c1OC (stereo unspecified) | 175 to 176 °C
* COc1ccc2nc(C(=O)Nc3nnn(Cc4ccc(Cl)c(Cl)c4)c3C)sc2c1 | 176 °C
* Cc1ncc(Cn2c(NC3CCN(CCNC(=O)c4cc5ccccc5n4C)CC3)nc3ccccc32)o1 | 104 °C
* N#CCCn1nc(-c2ccc(OCc3ccccc3)cc2)sc1=O | 135 °C
* COC(=O)COc1cccc2c(CCSC(c3ccc(Cl)cc3)c3ccc(Cl)cc3)coc12 | 68 to 69 °C
* C[C@H](Cn1cnc2c(=O)[nH]c(N)nc21)OCP(=O)(O)O | 270 to 272 °C
* CC(O)Cn1nc2c3c(cc([N+](=O)[O-])cc31)CCC2 (stereo unspecified) | 147 to 148 °C
* COc1ccc(C(=O)Nc2ccccc2)cc1NS(=O)(=O)c1ccc2ccccc2c1 | 223 to 225 °C
* Cc1cc2c(c3ccc(=O)[nH]c13)OC(CNC(=O)[C@@H](C)NC(=O)OCc1ccccc1)C2 (stereo partly specified) | 221 to 222 °C
* COC1=C(OC)C(=O)C(CCCCCCCCCC(=O)N[C@@H](CCCCN)C(=O)O)=C(C)C1=O | 107 °C
* O=C(Cc1ccc(I)cc1)NC[C@H]1CCCN1 | 120 °C
* CON=C(Cn1c(=O)ccc2ccccc21)c1ccc(C)cc1 | 129 to 132 °C
* CCOC(=O)c1cc(Cl)c2cccc(OC)c2n1 | 131 to 132 °C
* COc1cc(C(=O)N2Cc3ccc(C(=O)NCc4ccccc4C)n3Cc3ccccc32)ccc1-c1ccccc1C | 204 °C

###

// reported melting point per item
PARAMETER MEASURED: melting point

* CCOC(=O)C(Cc1ccc(C)c(C)c1)(NC(C)=O)C(=O)OCC | 107 to 109 °C
* CC(C(=O)O)c1ccc(C=C2CCCCC2O)cc1 (centres undefined) | 135 to 136 °C
* OC(CCCCCOc1cccc(Cl)c1)c1cccc(OCc2ccc3ccccc3n2)c1 (centres undefined) | 69.5 to 70.5 °C
* Cc1cc(C)nc(-n2c(C(=O)Nc3ccc4c(c3)nc(C)n4C)cc3cc(F)ccc32)c1 | 130 to 140 °C
* COC1CC(C)(OCc2ccccc2)C2COC1O2 (centres undefined) | 45 to 46 °C
* CCCCc1oc2ccccc2c1C(=O)NCc1ccc2c(Br)c(OCC#N)ccc2c1 | 154 to 157 °C
* CCCc1c(C(C)C)cc(C(C)C)c(C(C)O)c1-c1ccc(F)cc1 (single isomer, unassigned; (+)) | 114 to 116 °C
* CC1(C)[C@H](CN2CCCCS2(=O)=O)CC[C@]1(C)NCC(=O)N1C[C@@H](F)C[C@H]1C#N | 186 to 190 °C
* CCOC(=O)C(O)=CC=C(SC)C(=O)c1ccc(N2CCCCC2)cc1 | 65 °C
* COc1ccc(C(C)(C)C)cc1C=Cc1ccc(C=O)cc1 | 82 to 83 °C
* COc1cc2c(-c3cc4cccnc4[nH]3)cn(CCN3CCOCC3)c2cc1OC | 218 °C
* CC(C)(C)c1csc(-c2cc3cc(CCc4ccccc4C(=O)O)ccc3o2)n1 | 147 to 148 °C
* Nc1ccc(N2CCN(Cc3ccccc3)CC2)cc1C(=O)O | 242 °C
* CC1CCc2nc(=O)c(-c3ccccc3)cn21 (centres undefined) | 178 °C
* O=C(Nc1ccc(-n2nc(C(F)(F)F)cc2OC(F)F)cc1)c1ccncc1F | 135 to 136 °C
* COc1ccc2c(=O)c(-c3ccccc3)c(SCc3ccccc3)oc2c1 | 153 to 154 °C
* CCOC(=O)c1c(N=Cc2ccc([N+](=O)[O-])s2)sc(N=Cc2ccc([N+](=O)[O-])s2)c1C(=O)OCC | 255 to 257 °C
* O=C(CCCl)Nc1ccc2c(c1)C(=O)c1cc(NC(=O)CCCl)ccc1C2=O | 281 °C
* CCOC(=O)C(C)N1C(=O)C(C)Oc2c(N3CCOCC3)nc(C)nc21 (centres undefined) | 80 to 82 °C

###

// reported melting point per item
PARAMETER MEASURED: melting point

- CN1CC=C(c2c[nH]c3ccc(O)cc23)CC1: 182 to 185 °C
- Clc1ccc2oc(SCCN3CCC(OC(c4ccccc4)c4ccccc4)CC3)nc2c1: 98 to 101 °C
- CCCCC(=N)NC(=O)Nc1cccc([N+](=O)[O-])c1: 161 to 163 °C
- CC(C)CN1C(=O)C(C)(C)C(=O)Nc2cc(C=O)ccc21: 154 to 155 °C
- Cc1nnc2n1-c1ccccc1NC2(C)C: 177 to 178 °C
- O=C1N(N2CCOCC2)c2ccccc2C1(Cc1ccccc1)Cc1ccccc1: 179 to 180 °C

###

PARAMETER MEASURED: melting point

• CCOC(=O)Cn1c(-c2ccc(Cl)c(Cl)c2)nc2cccnc21 = 141 to 142 °C
• CCCCCCCCCCCCCCC(O)=S = 60 to 62 °C
• O=C(O)c1ccc2n1Cc1ccccc1N(C(=O)COc1ccc(Cl)cc1)C2 = 168 °C
• CCOCCn1c(NC2CCN(C(=O)c3cc(C(F)(F)F)cc(C(F)(F)F)c3)C(Cc3ccccc3)C2)nc2ccccc21 (centres undefined) = 178 °C
• COc1cc(=O)n(-c2cccc(C(F)(F)F)c2)nc1C(=O)N(C)OC = 127 to 129 °C
• COc1ncc(C2Nc3ccccc3C(=O)N2c2cccc(C(F)(F)F)c2)cc1Br (centres undefined) = 192 to 193 °C
• COC(=O)Nc1cc(F)ccc1C(=O)O = 162 °C
• CCCNc1cccc(-c2ccnc3c(C(=O)c4cccs4)cnn23)c1 = 128 to 130 °C
• O=S(=O)(c1ccccc1)C(CCCCl)c1ccccc1 (centres undefined) = 110 to 112 °C
• CCCCOc1c(CNC(=O)OC(C)(C)C)n(CC(C)C)c(=O)c2ccc(-c3cccs3)cc12 = 130 to 131 °C
• CCOC(=O)/C=C/c1cn(CC)nc1OCc1ccc(OCc2nc(-c3ccco3)oc2C)c(OC)c1 = 149 to 150 °C
• O=C(CN1C(=O)CC1Sc1ccc(Cl)cc1)NCCCCCCc1ccccc1 (centres undefined) = 52 to 54 °C
• CC(C)(C)OC(=O)N1CCN(C(=O)c2nc3c(N)nc(N)nc3nc2N)CC1 = 245 to 250 °C
• C=CC(=O)OCC=C(C)CCC=C(C)CCC=C(C)CCC=C(C)CCC=C(C)CCC=C(C)CCC=C(C)CCC=C(C)CCC=C(C)CCC=C(C)C = 32 to 32.8 °C
• Cn1ccc2cc(NC(=O)Nc3cncnc3)ccc21 = 210 to 213 °C
• COc1cc(OC)cc(-n2c(-c3ccccc3F)cc(=O)c(C)c2-c2ccc(F)cc2F)c1 = 171 to 173 °C
• CN(C(=O)c1ccc2nonc2c1)C1CCC(=NO)CC1 (centres undefined) = 197 to 198 °C
• CCn1ncc2c3[nH]c4cc(C)nn4c(=O)c3cnc21 = > 300 °C
• COc1cccc(OC)c1-c1nc2cnncc2[nH]1 = 207 °C
• COc1ccc(-c2nc(SCC=O)sc2-c2ccc(OC)cc2)cc1 = 75 to 76 °C
• CN1C(=O)CC[C@]2(C)c3ccc(-c4ccccc4[N+](=O)[O-])cc3CC[C@@H]12 = 130 to 131 °C
• O=C1c2ccc(CCCCc3ccccc3)cc2CCN1O = 82 to 83 °C
• COc1ccc(-c2c(Cl)c(CN3C(=O)CSC3=O)nc3sc4c(c23)CCSC4)cc1 = 208 to 209 °C
• Cc1c(C(N)=NO)ncn1-c1cccc(Oc2ccccc2)c1 = 196 to 198 °C
• O=C(Nc1ccc2c(c1)OC=C1CN(C(=O)OCc3ccccc3)C=CN12)OCc1ccccc1 = 118 to 120 °C
• Cc1ccn(NS(=O)n2ccnc2)c(=N)c1 (centres undefined) = 176 to 177 °C
• COc1ccc(C=CC(=O)O)cc1-c1cc2c(cc1OCCCCCC(N)=O)C(C)(C)CCC2(C)C = 133 to 135 °C
• CCCCN(CCCC)CCCOc1ccc(S(=O)(=O)c2c(C3CCCCC3)cn3ccccc23)cc1 = 130 to 131 °C
• Cc1cc(C2(C3CC3)CC(c3ccc(Cl)cc3)=NO2)ccc1NC(=O)c1cccc(I)c1C(=O)NC(C)C (centres undefined) = 178 to 180 °C
• O=C(CCCCC1CCN(Cc2ccccc2)CC1)c1ccc(N2CCCC2)cc1 = 129 to 131 °C
• COCc1c(C(=O)O)ncc2c1c1c(Oc3ccc([N+](=O)[O-])cc3)cccc1n2CC(=O)N(C)CCc1ccccc1 = 231 to 232 °C
• [N-]=[N+]=C(C(=O)CCc1ccccc1)C(=O)CCc1ccccc1 = 62.6 to 64 °C
• CCCCCC(CCn1ccnc1)SCc1ccc(Cl)cc1Cl (centres undefined) = 124 to 126 °C
• CC1CC(c2cc3cccc(F)c3s2)CCN1 (centres undefined) = 45 to 47 °C
• CCc1nc2c(cnn2CC)c(NC2CCOCC2)c1CNC(=O)c1cccc(C(=O)NCc2ccc(OC)c(-c3cccc(C=O)c3)c2)c1 = 118 to 121 °C
• CCOC(=O)CCc1ccc(CBr)cc1 = 132 °C
• Cc1nccnc1OCC1COC(C)(C)O1 (centres undefined) = 77 to 78 °C
• CC1(C)N=C(S)N=C(N)N1 = 186 to 188 °C
• Cc1onc(-c2c(Cl)cccc2Cl)c1CN1C(=O)C2(COc3cc4c(cc32)OCO4)c2ccccc21 (centres undefined) = 190 to 192 °C
